Growth Rate values by entry
tested on: Fibroblast; test: Incucyte cell viability with human fibroblast; format: toxicity, cell-based; conditions: 0 h, 10 µM, compound concentration 10 uM, replicate number 1; also: unitless GR value; below 1 slowed growth and below 0 cell loss
Provide a numeric answer; units are not to be included.

Examples with their reported Growth Rate follow.
Compound | Growth Rate
CC(C)(O)c1cnc(N2C[C@@]3(CCC[C@](C)(Cn4cnc5ccc(C#N)cc54)C3)OC2=O)cn1 [GSK2798745] | 0.24
COc1cc2nc(-c3cc(F)ccc3O)nc(N[C@@H]3CNC[C@H]3C(C)(C)O)c2cc1OC.Cl.Cl | -1
CC(C)(c1ccc(OCc2cccc(COc3ccc(C(=N)N)cc3)c2)cc1)c1ccc(O[C@@H]2O[C@H](C(=O)O)[C@@H](O)[C@H](O)[C@H]2O)cc1.O=C(O)C(F)(F)F | -1
Cc1ccc(NC(=O)c2ccc(CN3CC[C@H](N(C)C)C3)c(C(F)(F)F)c2)cc1Nc1nccc(-c2cncnc2)n1 [BAFETINIB] | -1
CC(C)CNc1nc(N2CCN(CC3CCCOC3)CC2)ncc1C(=O)NCc1ccccc1 (stereo not drawn) | -0.99
C[C@@H](CN1CC[C@@]2(C)c3cccc(O)c3C[C@@H]1C2(C)C)OCc1ccccc1.Cl | -1
COc1cc(-c2cn(C)c(=O)c3cnccc23)cc(OC)c1CN(C)C | 0.17

Query: Any idea what its Growth Rate is? The compound is `Cc1nc2ccc(Oc3ccc(F)cc3)cc2c(=O)n1C[C@H]1CCCN(C(C)C)C1.Cl`
Response: -1
